The measured values listed here are drawn from patent US20260242735A1.

Assay Target: human CD33 variant Y50D (human, UniProt P20138 18-364)
Sequence (P20138 18-364 Y50D limits assumed): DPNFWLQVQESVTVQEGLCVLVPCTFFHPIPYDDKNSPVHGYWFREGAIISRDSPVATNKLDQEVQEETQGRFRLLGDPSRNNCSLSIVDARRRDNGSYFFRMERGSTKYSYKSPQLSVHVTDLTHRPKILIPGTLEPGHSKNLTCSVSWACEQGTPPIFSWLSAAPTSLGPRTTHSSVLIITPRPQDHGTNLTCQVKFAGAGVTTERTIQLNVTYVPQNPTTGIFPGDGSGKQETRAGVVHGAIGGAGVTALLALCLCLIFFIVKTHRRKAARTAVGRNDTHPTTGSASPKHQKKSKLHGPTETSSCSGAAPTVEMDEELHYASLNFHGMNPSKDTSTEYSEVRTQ
Protocol Text: flow cytometry, IgG on cells expressing the mutant
Listing: Mean % WT Binding of selected binders

What value of Mean % WT Binding has been recorded for this entry: Refmab #4 (antibody, human IgG1, V domains shown, Tested in IgG format; human IgG1 Fc silent (PG-LALA)) VH: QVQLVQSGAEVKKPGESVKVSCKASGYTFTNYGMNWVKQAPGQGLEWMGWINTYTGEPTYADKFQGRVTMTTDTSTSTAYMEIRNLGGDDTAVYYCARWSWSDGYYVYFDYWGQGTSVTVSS VL: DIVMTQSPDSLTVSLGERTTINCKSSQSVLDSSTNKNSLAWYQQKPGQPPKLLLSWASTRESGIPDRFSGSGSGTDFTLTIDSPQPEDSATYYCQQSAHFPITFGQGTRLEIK 0.9 % of WT

What value of Mean % WT Binding has been recorded for this entry: Refmab #1 (antibody, human IgG1, V domains shown, Tested in IgG format; human IgG1 (Absolute Antibody hP67.6, Cat. No. Ab00283-10.0); also called hP67.6) VH: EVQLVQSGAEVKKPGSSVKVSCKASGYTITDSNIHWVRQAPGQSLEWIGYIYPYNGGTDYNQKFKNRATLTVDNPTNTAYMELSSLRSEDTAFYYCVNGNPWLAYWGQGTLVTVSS VL: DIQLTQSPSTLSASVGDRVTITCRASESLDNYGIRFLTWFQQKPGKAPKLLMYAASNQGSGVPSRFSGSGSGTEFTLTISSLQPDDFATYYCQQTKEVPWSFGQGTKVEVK 115 % of WT

What value of Mean % WT Binding has been recorded for this entry: Refmab #2 (antibody, human IgG1, V domains shown, Tested in IgG format; human IgG1 Fc silent (PG-LALA)) VH: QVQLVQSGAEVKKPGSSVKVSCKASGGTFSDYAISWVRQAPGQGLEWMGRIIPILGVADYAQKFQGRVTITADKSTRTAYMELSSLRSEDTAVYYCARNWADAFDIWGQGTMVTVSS VL: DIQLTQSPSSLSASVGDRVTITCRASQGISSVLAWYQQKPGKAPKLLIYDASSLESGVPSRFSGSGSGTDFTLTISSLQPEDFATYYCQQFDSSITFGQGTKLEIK 112 % of WT
